- assayed-target: Urokinase from human urine (Homo sapiens)
- experiment-summary: Enzymatic assay, urokinase
Where a SMILES comes first, the peptide text is derived from it.
recorded-metric: Urokinase at 100 μM % (%)

compound	experimental-result
CCCC[C@@H]1NC(=O)[C@@H]2CCCN2C(=O)[C@@H]2CCCN2C(=O)[C@H](CC(=O)O)NC(=O)[C@H](CO)NC(=O)[C@H](CCCCN)NC(=O)[C@H]([C@@H](C)O)NC(=O)[C@@H]2CSSC[C@H](NC1=O)C(=O)N[C@@H](CCCNC(=N)N)C(=O)N1CCC[C@@H]1C(=O)N1CCC[C@H]1C(=O)N[C@@H]([C@@H](C)CC)C(=O)N2 [Ex. 19] (HELM PEPTIDE1{I.C.T.K.S.D.P.P.[Nle].C.R.[dP].P}$PEPTIDE1,PEPTIDE1,2:R3-10:R3|PEPTIDE1,PEPTIDE1,1:R1-13:R2$$$V2.0)	4
CC[C@H](C)[C@@H]1NC(=O)[C@@H]2CCCN2C(=O)[C@H]2CCCN2C(=O)[C@H](CCCNC(=N)N)NC(=O)[C@@H]2CSSC[C@H](NC1=O)C(=O)N[C@@H]([C@@H](C)O)C(=O)N[C@@H](CCCCN)C(=O)N[C@@H](CO)C(=O)N[C@@H](CC(=O)O)C(=O)N1CCC[C@H]1C(=O)N1CCC[C@H]1C(=O)N[C@@H](CC1CCCCC1)C(=O)N2 [Ex. 20] (HELM PEPTIDE1{I.C.T.K.S.D.P.P.[Cha].C.R.[dP].P}$PEPTIDE1,PEPTIDE1,2:R3-10:R3|PEPTIDE1,PEPTIDE1,1:R1-13:R2$$$V2.0)	6.7
CC[C@H](C)[C@@H]1NC(=O)[C@@H]2CCCN2C(=O)[C@@H]2CCCN2C(=O)[C@H](CC(=O)O)NC(=O)[C@H](CO)NC(=O)[C@H](CCCCN)NC(=O)[C@H]([C@@H](C)O)NC(=O)[C@@H]2CSSC[C@H](NC1=O)C(=O)N[C@@H](Cc1ccc(O)cc1)C(=O)N1CCC[C@@H]1C(=O)N1CCC[C@H]1C(=O)N[C@@H](CC1CCCCC1)C(=O)N2 [Ex. 36] (HELM PEPTIDE1{[Cha].C.T.K.S.D.P.P.I.C.Y.[dP].P}$PEPTIDE1,PEPTIDE1,2:R3-10:R3|PEPTIDE1,PEPTIDE1,1:R1-13:R2$$$V2.0)	0
CC[C@H](C)[C@@H]1NC(=O)[C@H](C)NC(=O)[C@@H]2CCCN2C(=O)[C@H](CC(=O)O)NC(=O)[C@H](CO)NC(=O)[C@H](CCCCN)NC(=O)[C@H]([C@@H](C)O)NC(=O)[C@@H]2CSSC[C@H](NC1=O)C(=O)N[C@@H](CCCNC(=N)N)C(=O)N1CCC[C@@H]1C(=O)N1CCC[C@H]1C(=O)N[C@@H]([C@@H](C)CC)C(=O)N2 [Ex. 52] (HELM PEPTIDE1{I.C.T.K.S.D.P.A.I.C.R.[dP].P}$PEPTIDE1,PEPTIDE1,2:R3-10:R3|PEPTIDE1,PEPTIDE1,1:R1-13:R2$$$V2.0)	5.4
